- Test system: PC-3 prostate
- Assay Overview: NCI-60 one-dose screen, 48 h
- Condition Parameters: 10 µM unless noted
About 83,000 compounds went through this panel and 20% of them were active in at least one assay; those are over-represented in the sample as a whole. Calls of active or inactive are those of the source. How the source made its calls: active means growth percent below 10; inactive means the rest.
Answer with one of the outcomes given here: active, inactive

> print(dat)
                                   compound     class
1  CC(C)(C)n1cc(-c2ccnc(NCCNS(=O)(=O)c3ccc(O)cc3)c2)c(-c2cccc(O)c2)n1  inactive

(Q) Hi, do you know how CO[C@H]1CC(=O)n2c3ccccc3c3c4c(c5c6ccccc6n1c5c32)C(=O)NC4=O came out in this test?
(A) inactive

* * *

- System: CAKI-1 renal
- Assay Overview: NCI-60 one-dose screen, 48 h
- Condition Parameters: 10 µM unless noted
This is part of a sample that, as a whole, favours compounds with a hit. Of some 83,000 tested, about 20% had one in any assay. Activity calls are given as the source filed them. Rule for the calls: active = growth percent below 10; inactive = the rest.
Choose one outcome from this list and give only that: active, inactive

Illustrative cases are given below, each with its answer.
Molecule	Assay System	Class
CNC(=O)c1ccccc1Nc1nc(Nc2cc(OC)c(OC)c(OC)c2)ncc1Br	CAKI-1 renal	active
CC1(C)[C@@H](O[C@@H]2OC[C@@H](O[C@@H]3O[C@H](CO)[C@@H](O)[C@H](O)[C@H]3O[C@@H]3OC[C@@H](O)[C@H](O)[C@H]3O)[C@H](O)[C@H]2O[C@@H]2O[C@H](CO)[C@@H](O)[C@H](O)[C@H]2O)CC[C@]2(C)[C@H]3CC[C@]45OC[C@@]6(CC[C@](C)(C=O)C[C@H]64)[C@H](O)C[C@@]5(C)[C@]3(C)CC[C@@H]12	CAKI-1 renal	active
O=C(CSc1nc(-c2ccccc2)cc(=O)[nH]1)Nc1nc(-c2ccccc2)cs1	CAKI-1 renal	inactive
N#Cc1cccc(C2C3=C(COC3=O)N(CCO)c3cc4c(cc32)CCC4)c1 (stereo not given)	CAKI-1 renal	inactive

# ---- query molecule ----
(Q) Would you mind telling me which call this test gave CCOC(=O)c1nn(CC(O)c2ccccc2)c(NC(=O)Nc2cccc(F)c2)c1C (stereo not given) ?
(A) inactive

* * *

- System: HOP-62 NSCLC
- Assay Overview: NCI-60 one-dose screen, 48 h
- Condition Parameters: 10 µM unless noted
The panel holds about 83,000 compounds, 20% with a hit somewhere; the sample as a whole holds those more often. The source made the active and inactive calls. The calls were made as follows: active = growth percent below 10; inactive = the rest.
I would appreciate it if you answered using one of these outcomes: YES for active, NO for inactive

> print(dat)
                                   molecule  assay.system  class
1  C#Cc1cccc(Nc2nc(C)nc3cc(NC(=O)CCl)ccc23)c1  HOP-62 NSCLC    YES
2            CC(=O)Oc1ccc(OC(C)=O)c2ccccc12  HOP-62 NSCLC     NO
3  O=C(N/N=C\c1ccccc1S(=O)(=O)O)N/N=C/c1ccccc1S(=O)(=O)O  HOP-62 NSCLC     NO

(Q) Give the logged outcome of this assay for the following molecule: COc1ccc(-c2nc(-c3cn(C)c4ncccc34)cs2)cc1
(A) YES

(Q) Which result was noted for this molecule in the test: COc1ccc(/C=C(/C(=O)n2cnnn2)c2cc(OC)c(OC)c(OC)c2)cc1
(A) NO

(Q) Write down the call the test reported for this molecule. Item: O=C(Nc1ccc(Cl)cc1)Oc1c(Cl)c(Cl)c(Cl)c(Cl)c1Cl
(A) NO

(Q) Recorded test outcome, item CCN1C(=O)N(CC)C2C1NC(=S)N2/N=C/c1ccc(C(F)(F)F)cc1 (stereo not given)
(A) NO

(Q) Recorded test call requested for COc1ccc(C(O)c2cc3c(N)c(C(=O)Nc4cccc(Cl)c4C)sc3nc2C)cc1 (stereo not given)
(A) NO
